test system: Liver; experiment: Antioxidant activity in Sprague-Dawley rat liver assessed as lipid peroxidation by thiobarbituric acid assay; format: functional, tissue-based
READOUT KIND: IC50 (µM)
Express the result in µM but write the number alone.

Consider the following illustrative entries.
MOL	TEST SYSTEM	NUMERIC VALUE
CC[C@H](C)[C@H](NC(=O)OC1CC(C)(C)N([O])C(C)(C)C1)C(=O)Oc1c(OC)cc([C@@H]2c3cc4c(cc3C[C@H]3COC(=O)[C@@H]32)OCO4)cc1OC	Liver	13.2
COc1cc([C@@H]2c3cc4c(cc3C[C@H]3COC(=O)[C@@H]32)OCO4)cc(OC)c1OC(=O)[C@@H]1CCCN1C(=O)OC1CC(C)(C)N([O])C(C)(C)C1	Liver	9.7

Let us examine a further case.
Request: State the measured IC50 (Liver) of COc1cc([C@@H]2c3cc4c(cc3C[C@H]3COC(=O)[C@@H]32)OCO4)cc(OC)c1OC(=O)[C@H](CC(C)C)NC(=O)OC1CC(C)(C)N([O])C(C)(C)C1
Response: 18

###

system: Liver; assay: Antioxidant activity in Sprague-Dawley rat liver assessed as lipid peroxidation by thiobarbituric acid assay; assay type: functional, tissue-based
# pIC50 listing for each entry below
# log scale: pIC50 equals minus log10 of the concentration in mol/L

MOL	TEST SYSTEM	pIC50
COc1cc([C@@H]2c3cc4c(cc3C[C@H]3COC(=O)[C@@H]32)OCO4)cc(OC)c1OC(=O)[C@H](Cc1ccc(O)cc1)NC(=O)OC1CC(C)(C)N([O])C(C)(C)C1	Liver	4.82
COc1cc([C@@H]2c3cc4c(cc3C[C@H]3COC(=O)[C@@H]32)OCO4)cc(OC)c1OC(=O)[C@H](C)NC(=O)OC1CC(C)(C)N([O])C(C)(C)C1	Liver	4.81
COc1cc([C@@H]2c3cc4c(cc3C[C@H]3COC(=O)[C@@H]32)OCO4)cc(OC)c1OC(=O)[C@H](Cc1ccccc1)NC(=O)OC1CC(C)(C)N([O])C(C)(C)C1	Liver	4.98

Request: # return recorded pIC50 for input COc1cc([C@@H]2c3cc4c(cc3C[C@H]3COC(=O)[C@@H]32)OCO4)cc(OC)c1OC(=O)[C@@H](NC(=O)OC1CC(C)(C)N([O])C(C)(C)C1)C(C)C
Response: 4.71

Request: Give the reported pIC50 for this compound. COc1cc([C@@H]2c3cc4c(cc3C[C@H]3COC(=O)[C@@H]32)OCO4)cc(OC)c1OC(=O)CNC(=O)OC1CC(C)(C)N([O])C(C)(C)C1
Response: 4.84

###

# key: entry, value: pIC50
tested on: HL-60; assay: Cytotoxicity against human HL60 cells after 72 hrs by CCK8 method; assay type: functional, cell-based; details: Homo sapiens, HL-60, 72 h
Bear in mind: pIC50 is minus log10 of a mol/L concentration; give just that figure.

COMPOUND	pIC50
COc1cc([C@@H]2c3cc4c(cc3C[C@H]3COC(=O)[C@@H]32)OCO4)cc(OC)c1O [4'-DEMETHYLDEOXYPODOPHYLLOTOXIN]	6.96

Request: Find the measured pIC50 of COc1cc([C@@H]2c3cc4c(cc3[C@@H](O[C@@H]3O[C@@H]5CO[C@@H](C)O[C@H]5[C@H](O)[C@H]3O)[C@H]3COC(=O)[C@H]23)OCO4)cc(OC)c1O [ETOPOSIDE] and report it.
Response: 6.74
